- System: NCI-H23 lung
- assay.method.text: NCI tumour cell line growth inhibition, 48 h
Item-by-item account of TGI
quantity.name: TGI

{"compound": "O=C(/C=C/c1ccccc1)NC1C=Nc2ccc([N+](=O)[O-])cc2NC1=O (stereo unspecified)", "meas.value": "> 100 µM"}
{"compound": "COc1ccc(-c2nc3sc(-c4cc(OC)c(OC)c(OC)c4)nn3c2/C=C2/C(=O)Nc3ccc(F)cc32)cc1", "meas.value": "21.5 µM"}
{"compound": "Cn1cc(C2NC(=O)c3ccccc3N2)c2ccccc21 (stereo unspecified)", "meas.value": "> 100 µM"}
{"compound": "NC(N)=N/N=C/c1c(-c2ccccc2[N+](=O)[O-])nc2sccn12", "meas.value": "86.5 µM"}
{"compound": "COC(=O)c1c(O)c(C#N)c2[nH]c3ccccc3n2c1=O", "meas.value": "> 100 µM"}
{"compound": "O=c1nc2n(-c3cccc(Cl)c3)c3ccc([N+](=O)[O-])cc3cc-2c(=O)[nH]1", "meas.value": "10.6 µM"}
{"compound": "C/C(CN1C(=O)c2ccccc2C1=O)=N\\NS(=O)(=O)c1ccc2ccccc2c1", "meas.value": "> 100 µM"}
{"compound": "O=C(CCCc1ccc(N(CCCl)CCCl)cc1)NCc1ccccc1", "meas.value": "33.1 µM"}
{"compound": "Clc1ccc(OCC2NC3CCC2CC3)cn1 (stereo unspecified)", "meas.value": "> 100 µM"}
{"compound": "Cc1ccc2c(c1C)C(=O)C1(C2)Cc2ccc3c(c2C1=O)CCC3 (stereo unspecified)", "meas.value": "> 100 µM"}
{"compound": "C=C(Br)C(C)(Cl)CCC(Br)C(C)(C)Br (stereo unspecified)", "meas.value": "> 100 µM"}

----------
- Tested on: OVCAR-5 ovarian
- assay.method.text: NCI tumour cell line growth inhibition, 48 h; in the data active = GI50 below about 0.43 µM; inactive = the rest
Possible outcomes: active, inactive

{"molecule": "CC[C@@]1(OP(=O)(O)O)C(=O)OCc2c1cc1n(c2=O)Cc2cc3ccccc3nc2-1", "assigned.category": "inactive"}
{"molecule": "Cc1cccc2cc(/C=C/C(=O)/C=C/c3ccc(Cl)cc3)c(=O)[nH]c12", "assigned.category": "inactive"}
{"molecule": "COc1cc(/C=C/C(=O)c2cccc(-n3cc(-c4ccccc4)[nH]c3=O)c2)cc(OC)c1OC", "assigned.category": "inactive"}
{"molecule": "COc1ccc(-c2csc3c2-n2cccc2C3=O)cc1", "assigned.category": "active"}
{"molecule": "O=C([CH-]C(=O)c1ccccc1)c1ccccc1.O=C([CH-]C(=O)c1ccccc1)c1ccccc1.O=C([CH-]C(=O)c1ccccc1)c1ccccc1.[Ga+3]", "assigned.category": "inactive"}
{"molecule": "ClC1=C(Cl)C(Cl)(C2(Cl)C(Cl)=C(Cl)C(Cl)=C2Cl)C(Cl)=C1Cl", "assigned.category": "inactive"}
{"molecule": "O=C(O)c1ccc(N(/C=C/C(=O)C(F)(F)F)Cc2ccc(Cl)cc2)cc1", "assigned.category": "inactive"}
{"molecule": "COc1ccc(C2=NN(C(N)=S)C(c3ccc4c(c3)OCO4)C2)cc1 (centres undefined)", "assigned.category": "inactive"}
{"molecule": "CC(C)=CCC/C(C)=C/CC/C(C)=C/CSC[C@H](NC(=O)CCCCCN1CCN(C)CC1)C(=O)NC1CCCCCC1", "assigned.category": "inactive"}

----------
- Test system: RXF 393 renal
- assay.method.text: NCI tumour cell line growth inhibition, 48 h
The entries below come with measured TGI values attached.

{"compound": "C/C(=C\\C(=O)O[C@H]1[C@@H]2[C@H](C)CC[C@H]2[C@]2(C)O[C@@]1(C1CCCCC1)C[C@H]2OC(=O)CO)c1ccccc1", "relation.operator": "=", "TGI (µM)": 7.12}
{"compound": "COc1cc2nc(-c3cccs3)nc(Nc3cccc([N+](=O)[O-])c3)c2cc1OC", "relation.operator": "=", "TGI (µM)": 74.1}
{"compound": "Sc1cccc2cccnc12", "relation.operator": "=", "TGI (µM)": 8.28}
{"compound": "Cc1ccc(S(=O)(=O)NNC(=O)Nc2cccc(C(F)(F)F)c2)cc1", "relation.operator": ">", "TGI (µM)": 100}
{"compound": "O=C(Cc1ccccc1)NN1C(=O)C(Cl)C1c1ccc(Cl)cc1 (configuration not stated)", "relation.operator": ">", "TGI (µM)": 100}
{"compound": "COC(=O)C(Cc1ccccc1)NC(=O)CSc1nnc(COc2ccc(Cl)cc2)n1-c1ccccc1 (configuration not stated)", "relation.operator": "=", "TGI (µM)": 43}
{"compound": "COc1ccc(-c2cc(N3CCN(c4ccc(Cl)cc4)CC3)c(C#N)c(=O)o2)cc1", "relation.operator": "=", "TGI (µM)": 17.3}
{"compound": "C/C(=N/NC(=O)c1ccncc1)C(F)(F)F", "relation.operator": ">", "TGI (µM)": 100}
{"compound": "O=c1[nH]c(=S)[nH]cc1CN1CCOCC1", "relation.operator": ">", "TGI (µM)": 100}
{"compound": "COc1ccc(C(=O)C(C(=O)CCC(=O)Nc2ccc(Cl)c(Cl)c2)c2ccc(OC)cc2)cc1 (configuration not stated)", "relation.operator": ">", "TGI (µM)": 100}
{"compound": "CC1=C(O)C(=O)C=C2C1=CC=C1[C@@]2(C)CC[C@@]2(C)C3C[C@@H](C)C(=O)[C@@H](O)[C@]3(C)CC[C@]12C (some centres not stated)", "relation.operator": "=", "TGI (µM)": 3.49}
{"compound": "O=C(O)/C=C\\C(=O)Nc1ccc2c(c1)-c1ccccc1C2", "relation.operator": ">", "TGI (µM)": 100}
{"compound": "CC(=O)N1C=Cc2c(c(C)c3c([nH]c4ccccc43)c2C)C1", "relation.operator": "=", "TGI (µM)": 37.4}
{"compound": "O=C(N/N=C/c1ccc(Cl)cc1)c1ccc(NC(=O)c2ccccn2)cc1", "relation.operator": "=", "TGI (µM)": 63.3}
{"compound": "CCC(C)N1CN(c2ccccc2)C2(CCN(CC3COc4ccccc4O3)CC2)C1=O (configuration not stated)", "relation.operator": "=", "TGI (µM)": 38.1}
{"compound": "CC(=O)N1C/C(=C\\c2ccccc2)C(=O)/C(=C/c2ccccc2)C1", "relation.operator": "=", "TGI (µM)": 30.4}
{"compound": "CNC(=O)Oc1cc(C(C)C)ccc1Sc1ccc(C(C)C)cc1OC(=O)NC", "relation.operator": "=", "TGI (µM)": 9.34}
{"compound": "COCCN(C(=O)c1ccccc1)C1CCC2(SCCS2)c2[nH]c3ccccc3c21 (configuration not stated)", "relation.operator": "=", "TGI (µM)": 87.7}
{"compound": "COc1ccc(C2COc3c(ccc(OC)c3OC)C2=O)cc1OC (configuration not stated)", "relation.operator": ">", "TGI (µM)": 100}
{"compound": "CCC(=C(c1ccc(OCCN2CCCCC2)cc1)c1ccc(OCCN2CCCCC2)cc1)c1ccc(Cl)cc1", "relation.operator": "=", "TGI (µM)": 16.6}
{"compound": "COc1ccc(C2=NN(C(N)=S)C(c3ccc4c(c3)OCO4)C2)cc1 (configuration not stated)", "relation.operator": ">", "TGI (µM)": 100}
{"compound": "CC(C)(CN1CCCCC1)C(=O)/C=C/c1ccccc1", "relation.operator": "=", "TGI (µM)": 24.7}
{"compound": "CC1=C(CCCOC(=O)[C@H](N)CC(C)C)C2=C(C)C3(CC3)[C@@](C)(O)C(=O)C2=C1", "relation.operator": "=", "TGI (µM)": 1.29}
{"compound": "CCCCCCCCCCCCCCCCOCC(COP(=O)(O)OCC1OC(n2cc(CC)c(=O)[nH]c2=O)CC1O)OC(=O)CCCCCCCCCCCCCCC (configuration not stated)", "relation.operator": ">", "TGI (µM)": 100}
{"compound": "C[N+]1(C)C2CC(OC(=O)C(CO)c3ccccc3)CC1C1OC12 (configuration not stated)", "relation.operator": ">", "TGI (µM)": 100}
{"compound": "COc1cccc(OC)c1C1ON=C(c2ccccc2)N1C12CC3CC(CC(C3)C1)C2 (configuration not stated)", "relation.operator": "=", "TGI (µM)": 11.9}
{"compound": "CCOC(=O)c1nc2ccccc2nc1Oc1cc(OC)cc(OC)c1", "relation.operator": ">", "TGI (µM)": 100}
{"compound": "O=C(O)c1ccc(N(/C=C/C(=O)C(F)(F)F)Cc2ccc(Cl)cc2)cc1", "relation.operator": ">", "TGI (µM)": 100}
{"compound": "C#CCOC(=O)C(N)CC(N)=O (configuration not stated)", "relation.operator": ">", "TGI (µM)": 100}
{"compound": "CCN(CC)CC(=O)NC1c2ccccc2Oc2ccccc21", "relation.operator": ">", "TGI (µM)": 100}
{"compound": "N#CC1=C(N)Oc2c(sc3c(Br)cccc23)C1c1ccc([N+](=O)[O-])cc1 (configuration not stated)", "relation.operator": "=", "TGI (µM)": 2.23}
{"compound": "CN1C(=O)C(c2c[nH]c3ccccc23)=C(c2c[nH]c3ccccc23)C1=O", "relation.operator": "=", "TGI (µM)": 12.8}
{"compound": "O=C1CSC(c2c[nH]c3ccccc23)N1c1cccc(Cl)c1 (configuration not stated)", "relation.operator": ">", "TGI (µM)": 100}
{"compound": "C=C1c2nc3ccccc3n2C=C(c2ccc(OC)cc2)N1c1ccc(OCCN2CCCCC2)cc1", "relation.operator": ">", "TGI (µM)": 77}
{"compound": "Clc1ccc(OCC2NC3CCC2CC3)cn1 (configuration not stated)", "relation.operator": ">", "TGI (µM)": 100}
{"compound": "COC(=O)C(=O)C(C#N)c1nc2ccccc2s1 (configuration not stated)", "relation.operator": ">", "TGI (µM)": 100}
{"compound": "N=C(N)SCc1ccc2c(c1)S(=O)(=O)c1ccccc1O2", "relation.operator": "=", "TGI (µM)": 47.5}
